experiment: 384-well plate pilot, post-Golgi transport modulator project, inhibition of yeast transport mutant growth (AID 636); conditions: absorbance 615 nm, about 18 h, active compounds read high; also: test concentration not given here
property name: inhibition (%)
The answer is to be given in %; state only the numeric part.

Query: Consider the molecule shown here: COC(=O)C1=C(C)NC(C)=C(C(=O)OC)C1C(=O)OC1CCCCC1=O (stereo not given) What is its recorded inhibition?
Response: -4.46

Query: Consider the molecule shown here: COC(=O)Nc1sc2c(c1C(N)=O)CCCCCC2 What is its recorded inhibition?
Response: -1.82

Query: Consider the molecule shown here: CC(=O)N1CN(C2CCCC2)Cc2c1sc1c2CCCC1 What is its recorded inhibition?
Response: -8.22

Query: Consider the molecule shown here: COc1ccc2nc(S(=O)Cc3ncc(C)c(OC)c3C)[nH]c2c1 (stereo not given) What is its recorded inhibition?
Response: -1.69

Query: Consider the molecule shown here: Cc1cccc(NC(=O)CC2NC3CCCCC3NC2=O)c1 (stereo not given) What is its recorded inhibition?
Response: -3.42

Query: Consider the molecule shown here: COC(=O)Cc1c(C)c2ccc(OCC(=O)N3CCOCC3)cc2oc1=O What is its recorded inhibition?
Response: -4.67

Query: Consider the molecule shown here: CC1(C)CC(=O)C(CC(=O)NC(=O)NCc2ccccc2)=C(O)C1 What is its recorded inhibition?
Response: -4.52

Query: Consider the molecule shown here: Cc1ccc(-c2ccc(=O)n(CC(=O)NCCCN3CCCCC3C)n2)cc1 (stereo not given) What is its recorded inhibition?
Response: -0.39

Query: Consider the molecule shown here: COc1ccc(CNC(=O)C(c2ccco2)N(Cc2cccs2)C(=O)Cc2cccs2)cc1 (stereo not given) What is its recorded inhibition?
Response: -1.95

Query: Consider the molecule shown here: COCCn1c(N)c(C(=O)Nc2sc3c(c2C(=O)OC)CCCC3)c2nc3ccccc3nc21 What is its recorded inhibition?
Response: -4.42

Query: Consider the molecule shown here: Nc1nonc1-c1noc(-c2ccccc2Br)n1 What is its recorded inhibition?
Response: -6.62

Query: Consider the molecule shown here: O=C(c1ncc[nH]1)c1ccccc1C(=O)N1CCOCC1 What is its recorded inhibition?
Response: -5.21

Query: Consider the molecule shown here: c1ccc(-c2cc(CSc3nc4ccccc4[nH]3)on2)cc1 What is its recorded inhibition?
Response: -6.13

Query: Consider the molecule shown here: COc1ccc(N2CCN(Cc3cc(=O)oc4cc(C)c(Cl)c(C)c34)CC2)cc1 What is its recorded inhibition?
Response: -7.33

Query: Consider the molecule shown here: Cc1cccc(N2CCN(C(=O)C3CCCN(S(=O)(=O)c4cnc[nH]4)C3)CC2C)c1 (stereo not given) What is its recorded inhibition?
Response: -0.26

Query: Consider the molecule shown here: CC(=O)C1=C(O)C(=O)N(C2CCCCC2)C1c1ccccc1 (stereo not given) What is its recorded inhibition?
Response: -8.08

Query: Consider the molecule shown here: CC(C)OC(=O)CSc1nnc(-c2ccccn2)n1-c1ccccc1 What is its recorded inhibition?
Response: -1.87

Query: Consider the molecule shown here: CCOC(=O)N1CCN(C(=O)c2ccc(N3C(=O)CCC3=O)cc2)CC1 What is its recorded inhibition?
Response: -7.03

Query: Consider the molecule shown here: Cc1c(NC(=O)C(C)OC(=O)c2cc3c4ccccc4n(C)c3s2)c(=O)n(-c2ccccc2)n1C (stereo not given) What is its recorded inhibition?
Response: -11.4

Query: Consider the molecule shown here: COc1ccc(S(=O)(=O)N(CCN2CCOCC2)Cc2cc(OC)ccc2OC)cc1 What is its recorded inhibition?
Response: -3.25

Query: Consider the molecule shown here: C=CCSc1nnc2n(-c3ccccc3OC)c(=O)c3c4c(sc3n12)CCC4 What is its recorded inhibition?
Response: -0.67

Query: Consider the molecule shown here: Cn1cccc1C(=O)NC(=O)CSc1nnc(C2CC2)n1-c1ccccc1 What is its recorded inhibition?
Response: -1.17

Query: Consider the molecule shown here: COc1ccccc1C(=O)N1CCCC(c2nc(-c3cc(OC)c(OC)c(OC)c3)no2)C1 (stereo not given) What is its recorded inhibition?
Response: -6.71

Query: Consider the molecule shown here: COc1ccc(Cl)cc1Nc1nc(NCCO)nc(N2CCCC2)n1 What is its recorded inhibition?
Response: -7.57

Query: Consider the molecule shown here: Cc1ccc(-c2[nH]nc3c2C(c2ccoc2)C(C#N)=C(N)O3)cc1C (stereo not given) What is its recorded inhibition?
Response: -1.45

Query: Consider the molecule shown here: Cc1ccc(S(=O)(=O)N2CCCC2C(=O)OCc2ccco2)cc1 (stereo not given) What is its recorded inhibition?
Response: -6.58

Query: Consider the molecule shown here: Cc1ccccc1NC(=O)CSc1nnc(Cc2cccn2C)n1-c1ccc(F)cc1 What is its recorded inhibition?
Response: -0.9

Query: Consider the molecule shown here: CCN(CC)c1nc(N(CC)CC)[nH]c(=O)n1 What is its recorded inhibition?
Response: -4.94

Query: Consider the molecule shown here: CCOC(=O)N1CCN(C(=O)c2ccc3c(=O)n(Cc4ccc(OC)cc4)c(=S)[nH]c3c2)CC1 What is its recorded inhibition?
Response: -0.13

Query: Consider the molecule shown here: O=C1c2ccccc2C(=O)N1c1cccc(-c2nc3ccccc3o2)c1 What is its recorded inhibition?
Response: -4.13

Query: Consider the molecule shown here: CC1CCN(CCC(=O)Nc2ccc(Br)cc2)CC1 What is its recorded inhibition?
Response: -4.47

Query: Consider the molecule shown here: Cc1nn(-c2nc3ccccc3[nH]2)c(N)c1-c1ccccc1 What is its recorded inhibition?
Response: 11.6

Query: Consider the molecule shown here: CN(C)C(=O)CN(C)S(=O)(=O)c1ccc(Cl)cc1 What is its recorded inhibition?
Response: -6.3

Query: Consider the molecule shown here: Cc1cc(=O)oc2c(CN3CCN(C)CC3)c(O)c(Cl)cc12 What is its recorded inhibition?
Response: -6.05

Query: Consider the molecule shown here: CCOc1cc(NC(=O)c2ccco2)c(OCC)cc1NC(=O)COc1ccccc1C What is its recorded inhibition?
Response: -5.6

Query: Consider the molecule shown here: COc1ccc2[nH]c(=O)c(CN(Cc3cccs3)Cc3nnnn3C(C)(C)C)cc2c1 What is its recorded inhibition?
Response: -6.13

Query: Consider the molecule shown here: CCSc1nc(N)c(C#N)c(-c2ccccc2Cl)c1C#N What is its recorded inhibition?
Response: 0.14

Query: Consider the molecule shown here: CC(C)COc1ccc(-c2nnn(CC(=O)N3CCCC3)n2)cc1 What is its recorded inhibition?
Response: -8.67

Query: Consider the molecule shown here: CSc1nc(N)nc(SCCS(=O)(=O)c2ccc(Cl)cc2)c1C#N What is its recorded inhibition?
Response: -3.47

Query: Consider the molecule shown here: C/C(=N\O)C(=O)C(CN1CCCCC1)CN1CCCCC1 What is its recorded inhibition?
Response: 1.95

Query: Consider the molecule shown here: COC(=O)/C=c1\sc2ncnn2c1=O What is its recorded inhibition?
Response: 1.62

Query: Consider the molecule shown here: CCC(c1c(C)n(C)n(-c2ccccc2)c1=O)c1c(C)n(C)n(-c2ccccc2)c1=O What is its recorded inhibition?
Response: -5.21

Query: Consider the molecule shown here: Cc1nc2cc(C(=O)O)ccc2n1-c1ccc(F)cc1F What is its recorded inhibition?
Response: -4.42

Query: Consider the molecule shown here: CC(=O)Nc1nc(C)c(-c2csc(Nc3ccc(O)cc3)n2)s1 What is its recorded inhibition?
Response: -3.95

Query: Consider the molecule shown here: COc1ccc(Br)cc1C1N2CC3(C)CN1CC(C)(C2)C3=O (stereo not given) What is its recorded inhibition?
Response: -5.97
